Data origin: patent US11472805B2

- test target: Human PDE4B1 (Homo sapiens (Human), UniProt Q07343, S133E/S654A/S659A/S661A)
- Sequence (Q07343 122-736 S133E/S654A/S659A/S661A): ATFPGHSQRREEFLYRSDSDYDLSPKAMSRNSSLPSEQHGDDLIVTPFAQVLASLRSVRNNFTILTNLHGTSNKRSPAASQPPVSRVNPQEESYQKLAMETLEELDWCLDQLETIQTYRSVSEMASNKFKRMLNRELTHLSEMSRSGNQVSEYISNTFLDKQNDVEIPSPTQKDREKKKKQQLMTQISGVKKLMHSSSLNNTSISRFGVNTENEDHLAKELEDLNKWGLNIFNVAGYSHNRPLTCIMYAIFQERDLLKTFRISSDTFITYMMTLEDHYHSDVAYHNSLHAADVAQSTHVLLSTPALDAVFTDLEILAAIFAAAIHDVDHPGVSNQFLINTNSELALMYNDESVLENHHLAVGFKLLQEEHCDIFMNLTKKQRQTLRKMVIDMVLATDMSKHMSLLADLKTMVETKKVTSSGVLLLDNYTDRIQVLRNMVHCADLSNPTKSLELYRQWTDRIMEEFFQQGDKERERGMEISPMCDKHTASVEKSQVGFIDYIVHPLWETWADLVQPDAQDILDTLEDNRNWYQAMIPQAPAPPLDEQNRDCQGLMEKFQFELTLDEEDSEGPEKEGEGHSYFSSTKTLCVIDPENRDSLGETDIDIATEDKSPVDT
- assay protocol: PDE4B1 Scintillation Proximity Assay (SPA), inhibition of enzyme activity
- Format: biochemical
- condition description: Table 9, geometric mean of 2-9 determinations unless otherwise indicated, read-out: Human PDE4B FL
value kind: IC50 (nM)
Write the value in nM as a bare number.

Use these answered entries as a reference point.
C[C@@H]1Cn2c(c(-c3ccc(Cl)cc3)c3ncccc32)C(=O)N1C1CC1 :: 12.2
O=C1c2c(-c3ccc(Cl)cc3)c3ncccc3n2CCN1c1nnc[nH]1 :: 5.87

Let's switch to this compound now.
IN: Return IC50 for the following compound: O=C1c2c(-c3ccc(Cl)cc3)c3ncccc3n2CC2CCN12 (single isomer, unassigned) [Example 68]
OUT: 18.5
